B1: Osa-1-4 twister ribozyme (parent)
chain: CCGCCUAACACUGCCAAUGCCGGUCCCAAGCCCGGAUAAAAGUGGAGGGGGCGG

- Variants of: B1
- Measurement protocol: self-cleavage, relative activity (ratio to wild type); higher = more cleavage; co-transcriptional
Endpoint label: self-cleavage
Keep the answer to the number alone.

Consider the following illustrative entries.
- G13A G49C: 0.02
- C21U G45C: 0.07
- A46C G54U: 0.19
- A17C G48C: 0.03
- G22U G45A: 0.11

The variant G13U U43G showed self-cleavage equal to 0.04

The variant A29U C14A showed self-cleavage equal to 0.03

The variant A38G G23U showed self-cleavage equal to 0.1

Attribution: the RNAGym collection of RNA variant scans (doi:10.1002/anie.201605470)
